Tested on: NK-92 (IL-2 2.5 ng/mL);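 note: normalised to DMSO-only wells as negative and benzethonium chloride as positive control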
assay_explanation: percent inhibition of viability; higher = more inhibition
measurement_parameters: 72 h; 100 nM
# percent inhibition of viability per record follows
Output spec: scalar in %, unitless text.

compound: C1=N/C2=N/c3ccc(OCCN4CCCC4)c(c3)COC/C=C/COCc3cccc(c3)C(=C1)N2 [Pacritinib] (max concentration tested 10000 nM)
readout_kind: percent inhibition of viability
quantity_unit: %
measured: 1.4

Request: // query percent inhibition of viability value for entry CO[C@@]12[C@H](COC(N)=O)C3=C(C(=O)C(C)=C(N)C3=O)N1C[C@@H]1N[C@@H]12 [Mitomycin C] (max concentration tested 10000 nM)
Response: -5.66

Request: // query percent inhibition of viability value for entry O=C(NOC[C@H](O)CO)c1ccc(F)c(F)c1Nc1ccc(I)cc1F (max concentration tested 1000 nM)
Response: -30.8

Request: // query percent inhibition of viability value for entry Cc1cc(OCc2nnc(SC3CCCC3)n2-c2cccnc2)ccc1-c1ccc(S(C)(=O)=O)cc1 [NMS-873] (max concentration tested 10000 nM)
Response: 12.5

Request: // query percent inhibition of viability value for entry Cc1ccc(NC(=O)c2ccc(CN3CCN(C)CC3)cc2)cc1Nc1nccc(-c2cccnc2)n1 [Imatinib] (max concentration tested 10000 nM)
Response: -2.9

Request: // query percent inhibition of viability value for entry CO[C@@H]1[C@H](N(C)C(=O)c2ccccc2)C[C@H]2O[C@]1(C)n1c3ccccc3c3c4c(c5c6ccccc6n2c5c31)C(=O)NC4 [Midostaurin] (max concentration tested 10000 nM)
Response: 7.33

###

# relative IC50 per record follows
Test system: SNK-6 (IL-2 2.5 ng/mL)
assay_explanation: relative IC50 (inflection point of fitted viability curve, relative to fitted max inhibition); higher = less sensitive
measurement_parameters: 72 h

smiles_entry: C[C@]12CC[C@H](O)CC1=CC[C@@H]1[C@@H]2CC[C@]2(C)C(c3cccnc3)=CC[C@@H]12
relative IC50: > 5 µM

smiles_entry: C[C@@H]1CN(Cc2ccc(F)cc2)[C@@H](C)CN1C(=O)c1cc2c(C(=O)C(=O)N(C)C)cn(C)c2cc1Cl
relative IC50: > 10 µM

Request: // query relative IC50 value for entry CCc1cc(Nc2nccc(-c3c(-c4ccc(OC)c(C(=O)Nc5c(F)cccc5F)c4)nc4ccccn34)n2)c(OC)cc1N1CCC(N2CCN(S(C)(=O)=O)CC2)CC1
Response: > 10 µM

Request: // query relative IC50 value for entry O[C@H]1CC[C@H](Nc2ncc3nc(Nc4c(F)cc(F)cc4F)n([C@H]4CCOC4)c3n2)CC1
Response: > 10 µM

###

# relative IC50 per record follows
System: IMC-1 (IL-2 20 ng/mL)
assay_explanation: relative IC50 (inflection point of fitted viability curve, relative to fitted max inhibition); higher = less sensitive
measurement_parameters: 72 h

Answered cases to consult:
molecule: CCNC(=O)CCC/C=C\C[C@@H]1[C@@H](/C=C/[C@@H](O)CCc2ccccc2)[C@H](O)C[C@@H]1O [Bimatoprost]
tgt: IMC-1 (IL-2 20 ng/mL)
relative IC50: > 5.5 µM
--
molecule: CC(C)(C)Cn1c(N)nc2ccc(-c3[nH]c(C(C)(C)C)nc3-c3ccc(F)cc3)nc21 [Ralimetinib]
tgt: IMC-1 (IL-2 20 ng/mL)
relative IC50: > 10 µM

// moving on: another record for relative IC50
Request: // query relative IC50 value for entry CCCCCOC(=O)Nc1nc(=O)n([C@@H]2O[C@H](C)[C@@H](O)[C@H]2O)cc1F [Capecitabine]
Response: > 10 µM

###

Test system: NK-92 (IL-2 2.5 ng/mL);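 note: normalised to DMSO-only wells as negative and benzethonium chloride as positive control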
assay_explanation: percent inhibition of viability; higher = more inhibition
measurement_parameters: 72 h; 100 nM
# percent inhibition of viability per record follows
Output spec: scalar in %, unitless text.

Answered cases to consult:
molecule: CNC(=O)c1nn(C)c2c1C(C)(C)Cc1cnc(Nc3ccc(N4CCN(C)CC4)cc3)nc1-2 [Milciclib] (max concentration tested 10000 nM)
percent inhibition of viability [%]: 1.56
--
molecule: CC[C@@H]1C(=O)N(C)c2cnc(Nc3ccc(C(=O)N[C@H]4CC[C@H](N5CCN(CC6CC6)CC5)CC4)cc3OC)nc2N1C(C)C [Volasertib] (max concentration tested 1000 nM)
percent inhibition of viability [%]: 92

Request: // query percent inhibition of viability value for entry CCC/C=C/C=C/C(=O)O[C@H]1/C(=C/C(=O)OC)C[C@H]2C[C@H]([C@@H](C)O)OC(=O)C[C@H](O)C[C@@H]3C[C@H](OC(C)=O)C(C)(C)[C@](O)(C[C@@H]4C/C(=C/C(=O)OC)C[C@H](/C=C/C(C)(C)[C@]1(O)O2)O4)O3 [Bryostatin 1] (max concentration tested 100 nM)
Response: 95.4

Request: // query percent inhibition of viability value for entry O=C(NC1CCNCC1)c1n[nH]cc1NC(=O)c1c(Cl)cccc1Cl [AT7519] (max concentration tested 10000 nM)
Response: -2.58

Request: // query percent inhibition of viability value for entry C#Cc1cccc(Nc2ncnc3cc(OCCOC)c(OCCOC)cc23)c1 [Erlotinib] (max concentration tested 10000 nM)
Response: 24.3

Request: // query percent inhibition of viability value for entry CS(=O)(=O)N1CCc2c(-c3cnc(N)nc3)nc(N3CCOCC3)nc21 (max concentration tested 10000 nM)
Response: 15.7
